- Tested on: OVCAR-3 ovarian
- assayProtocol: NCI tumour cell line growth inhibition, 48 h
# maps each entry to its TGI
Give just the numeric value; µM need not be written.

- molecule: "Cc1ccc([N+](=O)[O-])cc1NC(=O)/C(CC(=O)c1sc(C(N)=S)nc1C)=N\\N"
  metricName: "TGI"
  endpointValue: 80.7
- molecule: "CCOC(=O)/C=C(\\C(=O)OCC)n1cc(C)c(=O)n(Cc2cn(COCCOC(C)=O)nn2)c1=O"
  metricName: "TGI"
  endpointValue: 27.6
- molecule: "NC1=C(/C(N)=N/O)C(c2ccccc2)c2ccc3ccccc3c2O1 (stereo not given)"
  metricName: "TGI"
  endpointValue: 0.675

We now examine a further molecule.
// query TGI value for entry `N#CC(C#N)[C@@H]1CCC=C(Sc2ccccc2)[C@H]1Sc1ccccc1`
12.8

###

Each entry below lists one item and its recorded TGI value.
- Test system: SNB-19 CNS
- assayProtocol: NCI tumour cell line growth inhibition, 48 h

Consider the worked cases shown below.
- compound: "CC(C)C(=O)CC(c1ccc(Br)cc1)N1N=C(C(C)C)CC1c1ccc(Br)cc1 (centres undefined)"
  endpointValue: "> 100 µM"
- compound: "Clc1ccc2c(NCCNc3nc(N4CCCCC4)nc4ccccc34)ccnc2c1"
  endpointValue: "15.6 µM"
- compound: "N#Cc1n[nH]n(-c2ccccc2)c1=O"
  endpointValue: "> 100 µM"
- compound: "CN(C)c1ccc(/C=C2\\C[C@H]3[C@@H]4CC=C5C[C@@H](O)CC[C@]5(C)[C@H]4CC[C@]3(C)[C@H]2O)cc1"
  endpointValue: "37.1 µM"
- compound: "CCOc1ccc2c(c1)[n+]([O-])c(-c1ccc([N+](=O)[O-])cc1)c(N)[n+]2[O-]"
  endpointValue: "> 100 µM"

What TGI value was documented for this compound, `FC(F)(F)c1nc2c(ccc3[nH]c4c(-c5ccccc5)nccc4c32)[nH]1` ?
> 100 µM

Another compound: CC(NNC(=S)N1CCN(c2ccccn2)CC1)c1cccc[n+]1[O-] (centres undefined)
> 100 µM

Thanks! And COc1cc(/C=C2\CC3C4CC[C@H]5C[C@@H](O)CC[C@]5(C)C4CC[C@]3(C)\C2=N\O)cc(OC)c1OC (some centres undefined) ?
> 100 µM

Another compound: `CN(CCCNC(=O)c1nn(-c2ccccc2)c2c1Cc1ccccc1-2)CCCNC(=O)c1nn(-c2ccccc2)c2c1Cc1ccccc1-2`
3.07 µM

###

Parameter TGI: see the listing below.
- Tested on: SNB-75 CNS
- assayProtocol: NCI tumour cell line growth inhibition, 48 h
Field format: number, assumed µM, no unit text.

Example results:
- molecule: "C=CC(=O)N1CCC(CNc2ncnc(N)c2-c2ccc(Oc3ccccc3)cc2)CC1"
  unitText: "µM"
  TGI: 58.9
- molecule: "Cc1[nH]c2[nH]c(=S)nc(NC(N)=S)c2c1Cc1ccccc1"
  unitText: "µM"
  TGI: 76.4
- molecule: "CC(=O)NC(CCCCN(Cc1ccccc1)C(=O)N(C)N=O)C(=O)NCc1ccccc1 (stereo unspecified)"
  unitText: "µM"
  TGI: 86.9

Please examine the following record next.
Please look up its TGI: `COc1cc(NC(=O)c2cc3ccccc3cc2O)c(OC)cc1Cl`
5.04

###

Examples of compounds with documented TGI follow.
- System: M14 melanoma
- assayProtocol: NCI tumour cell line growth inhibition, 48 h

- compound: "Oc1cc(F)cc2cccnc12"
  metricName: "TGI"
  endpointValue: "22.1 µM"
- compound: "COc1cc(NC(=O)c2cc3ccccc3cc2O)c(OC)cc1Cl"
  metricName: "TGI"
  endpointValue: "> 100 µM"
- compound: "CNC(=O)NCCCCC(NC(=O)OCc1ccccc1)C(=O)OCc1ccccc1 (stereo unspecified)"
  metricName: "TGI"
  endpointValue: "31.3 µM"
- compound: "N#CC1=C(N)Oc2c(ccc3cccnc23)C1c1ccccc1 (stereo unspecified)"
  metricName: "TGI"
  endpointValue: "> 41.5 µM"
- compound: "OC1CCSc2ccccc21 (stereo unspecified)"
  metricName: "TGI"
  endpointValue: "> 100 µM"

Kindly consider the entry below.
Hi! What's the reported TGI for `Nc1ncc(-c2ccc3ncnc(N4CCc5cc(F)c(Cl)cc54)c3c2)cc1C(F)(F)F` on M14 melanoma?
> 100 µM

###

- Tested on: SK-MEL-28 melanoma
- assayProtocol: NCI tumour cell line growth inhibition, 48 h; in the data active means GI50 below about 0.43 µM; inactive means the rest
Log the outcome using a class from active, inactive

// known answers, use as guide
- compound: "COC(=O)C(Br)(C(=O)OC)C(Br)C(Br)C(Br)c1ccccc1 (centres undefined)"
  classAssignment: "inactive"
- compound: "Nc1ncc(-c2ccc3ncnc(N4CCc5cc(F)c(Cl)cc54)c3c2)cc1C(F)(F)F"
  classAssignment: "inactive"
- compound: "CCOC(=O)CC1C(CNC(=O)NC)OC(n2cnc3c(NC(=O)Nc4ccccc4)ncnc32)C1O[Si](C)(C)C(C)(C)C (centres undefined)"
  classAssignment: "inactive"

Outcome? `COc1ccc(C(=O)c2cc(C)c(OC)c(C)c2)c(OC)c1OC(=O)C(Cl)Cl`
active

# repeat for `COC(=O)C[C@@H]1CC=CC(=O)/C1=C(O)/C=C/c1ccccc1`
inactive

Try this compound too: CC1(C)CC(C(=O)OCCCCCCCCCCC[P+](c2ccccc2)(c2ccccc2)c2ccccc2)C(C)(C)N1O (centres undefined)
inactive

Please do the same for `COc1ccc2cn3c4ccc(O)cc4[nH]c(=O)c3c2c1` as well.
active

Another: `CCN(CC)CCOc1ccccc1-n1c(C)ccc1-c1ccccc1`
inactive

Query `O=C1c2ccccc2-c2c1c1ccc([N+](=O)[O-])cc1c(=O)n2CCN1CCOCC1` next
inactive

###

- Test system: SF-268 CNS
- assayProtocol: NCI tumour cell line growth inhibition, 48 h
Measured TGI by item

See these solved cases before continuing.
- molecule: "COc1cccc(C=C(C#N)C#N)c1OC"
  TGI: "> 100 µM"
- molecule: "N#CC(C#N)[C@@H]1CCC=C(Sc2ccccc2)[C@H]1Sc1ccccc1"
  TGI: "14.7 µM"
- molecule: "CC(C)(C)CC(C)(C)c1cc2c(O)c(c1)Cc1cc(C(C)(C)CC(C)(C)C)cc(c1O)Cc1cc(C(C)(C)CC(C)(C)C)cc(c1O)Cc1cc(C(C)(C)CC(C)(C)C)cc(c1O)Cc1cc(C(C)(C)CC(C)(C)C)cc(c1O)Cc1cc(C(C)(C)CC(C)(C)C)cc(c1O)Cc1cc(C(C)(C)CC(C)(C)C)cc(c1O)Cc1cc(C(C)(C)CC(C)(C)C)cc(c1O)C2"
  TGI: "> 100 µM"
- molecule: "CC/C(=N/O)C(C)C(=O)CCC(=O)Nc1ccc(Cl)cc1 (stereo not given)"
  TGI: "> 100 µM"

Look at this molecule and give its reported TGI. `Cc1cccc(/C=N/N=C(\N)NO)n1`
> 100 µM

###

- Test system: NCI-H522 lung
- assayProtocol: NCI tumour cell line growth inhibition, 48 h
# GI50 annotations

- compound: "CC12OC(C(=O)C13CCC3)C1C(=O)c3c(O)ccc(O)c3C(=O)C12 (centres undefined)"
  GI50: "2.95 µM"
- compound: "C=C(C)[C@@H]1CC[C@]2(COC(=O)c3ccccc3C(=O)O)CC[C@]3(C)[C@H](CC[C@@H]4[C@@]5(C)CC[C@H](OC(=O)c6ccccc6C(=O)O)C(C)(C)[C@@H]5CC[C@]43C)[C@@H]12"
  GI50: "22.8 µM"

If you can, please state the reported GI50 value of `COC(=O)C[C@@H]1CC=CC(=O)/C1=C(O)/C=C/c1ccccc1` .
0.32 µM

Next up: `C=CC(=O)OCCCS(=O)(=O)[O-].C=CC(=O)OCCCS(=O)(=O)[O-].NC1CCCCC1N.[Pt+4]`
> 25 µM

###

- Test system: 786-0 renal
- assayProtocol: NCI tumour cell line growth inhibition, 48 h
metricName: TGI

The following compounds have reported results that may help.
- compound: "Cc1ccc([N+](=O)[O-])cc1S(=O)(=O)Nc1ccc(C2=NN(C(=O)c3ccccc3)C(c3ccccc3O)C2)cc1 (stereo not given)"
  endpointValue: "27.9 µM"
- compound: "Cn1c(=S)c2[nH]c(SCc3cccnc3)nc2n(C)c1=O"
  endpointValue: "> 100 µM"
- compound: "CN(CCc1ccccn1)c1ccc2c(c1)Cc1ccccc1-2"
  endpointValue: "> 100 µM"

Request: TGI, test system 786-0 renal, entry c1ccc(C[N+]23C(CC[C@H]2c2ccccc2)CC[C@H]3c2ccccc2)cc1 (stereo not given in full)
> 100 µM

`COc1c(OC)c(OC)c2c(=O)c(OC)c(-c3ccc4c(c3)OCO4)oc2c1OC` ?
> 100 µM

###

Items are presented alongside their recorded TGI.
- Tested on: BT-549 breast
- assayProtocol: NCI tumour cell line growth inhibition, 48 h

- compound: "O=C(Cc1ccccc1)Nc1nc2ccc(Cl)cc2c2nc(-c3ccco3)nn12"
  endpointValue: "> 100 µM"
- compound: "COc1ccc2c3c1OC1C4(CCC5C(C2)N(CC2CC2)CCC351)OCCO4 (stereo not given)"
  endpointValue: "> 100 µM"
- compound: "Cc1[nH]c2[nH]c(=S)nc(NC(N)=S)c2c1Cc1ccccc1"
  endpointValue: "36.3 µM"

Could you share which TGI value was measured for `Fc1c(F)c(F)c(CSc2nc3ccccc3[nH]2)c(F)c1F` ?
> 100 µM

Same lookup for `CCC1=NC(N/N=C/c2ccco2)=N/C1=C\c1ccco1` , please.
> 100 µM

Also need CCOC(=O)CC1C(CNC(=O)NC)OC(n2cnc3c(NC(=O)Nc4ccccc4)ncnc32)C1O[Si](C)(C)C(C)(C)C (stereo not given) , thanks.
> 100 µM

Same read-out for CC(O)/C=C/C1OC(=O)CC1Nc1ccc(C=O)cc1 (stereo not given) ?
> 100 µM

Now give it for `N#CC(C#N)=C(N)/C(C#N)=C/c1ccc(O)c(O)c1` too.
> 100 µM

Same question for `NCCNc1nc2ccc(F)cc2c2c(=O)c3cc(F)ccc3sc12` please.
24.1 µM

Please give the result for Cc1nc2sc(C(=O)Nc3cccc(Cl)c3C)c(N)c2cc1C(O)c1ccccc1 (stereo not given) too.
3 µM
